Below, each entry is listed alongside its reported pIC50.
# System: BaF3
# Assay Procedure: Cytotoxicity against mouse BaF3 cells expressing […]-RET kinase-G810R mutant fusion protein assessed as inhibition of cell proliferation incubated for 72 hrs by CCK8 assay
# Assay type: functional, cell-based
# Condition Parameters: BaF3, 72 h
pIC50: −log10 of the molar value.
Quantity Kind: pIC50

• CCOC(=O)c1nc2ccc(NCCN3CCCCC3)nn2c1C#Cc1cc(C(=O)Nc2cc(-n3cnc(C)c3)cc(C(C)(C)C#N)c2)c(NCCN2CCCCC2)cc1C = 5.92
• CCOC(=O)c1nc2n(c1C#Cc1cc(C(=O)Nc3cc(-n4cnc(C)c4)cc(C(F)(F)F)c3)ccc1C)NC(NC1CC1)C=C2 (centres undefined) = 5.42
• COc1ccc(CN2C3CC2CN(c2ccc(-c4cc(OCC(C)(C)O)cn5ncc(C#N)c45)cn2)C3)cn1 [SELPERCATINIB] = 5.68
• Cc1cn(-c2cc(NC(=O)c3cc(C#Cc4cnc5ccc(OCCN6CCOCC6)nn45)c(C)cc3F)cc(C(C)(C)C#N)c2)cn1 = 6.40
